- ASSAY_EXPLANATION: Human HepG2 cell viability assay in 384 well format
- Type: toxicity, cell-based
- Parameters: dose 125 nL, time 70.5 hour; concentration not given beside the values
- MEASUREMENT_CONDITIONS: HepG2 cells, read-out: Inhibition
A collection of molecules and their measured cytotoxicity at 70.5 h
ENDPOINT_LABEL: cytotoxicity at 70.5 h (%)

- COMPOUND_STRING: "CCn1cnnc1CNC(=O)N1CCC(Cc2cccnc2)CC1"
  ENDPOINT_LABEL: "cytotoxicity at 70.5 h"
  REPORTED_RESULT: 34.8
- COMPOUND_STRING: "Cc1c(NC(=O)N(C)CCO)cccc1OC1CCCC1"
  ENDPOINT_LABEL: "cytotoxicity at 70.5 h"
  REPORTED_RESULT: -7.3
- COMPOUND_STRING: "CCOC(=O)c1coc(N2CCC(N3CCC(O)CC3)CC2)n1"
  ENDPOINT_LABEL: "cytotoxicity at 70.5 h"
  REPORTED_RESULT: -7.59
- COMPOUND_STRING: "Cn1cc(N2C[C@@H]3CN(CC4CCOCC4)C[C@@H]3C2=O)cn1"
  ENDPOINT_LABEL: "cytotoxicity at 70.5 h"
  REPORTED_RESULT: 2.05
- COMPOUND_STRING: "Cn1nc2c(cc1=O)CN(Cc1nnc(-c3ccc(F)cc3)o1)CC2"
  ENDPOINT_LABEL: "cytotoxicity at 70.5 h"
  REPORTED_RESULT: -22.9

====

- ASSAY_EXPLANATION: Human HepG2 cell viability assay in 384 well format
- Assay type: toxicity, cell-based
- Design: dose 125 nL, time 70.5 hour; concentration not given beside the values
- MEASUREMENT_CONDITIONS: HepG2 cells, read-out: Inhibition
A collection of molecules and their measured cytotoxicity at 70.5 h
ENDPOINT_LABEL: cytotoxicity at 70.5 h (%)

- MOLECULE: "Cc1cc(C)n(CC(=O)N2CCCCC2CCN(C)C)c(=O)n1 (configuration not stated)"
  REPORTED_RESULT: -7.91
- MOLECULE: "O=C(c1c[nH]nn1)N1CCN(C(c2ccccc2)C(F)(F)F)CC1 (configuration not stated)"
  REPORTED_RESULT: -10.3
- MOLECULE: "CC(=O)NC(CC(=O)Nc1ccc(C)cn1)c1ccccc1 (configuration not stated)"
  REPORTED_RESULT: -6.79
- MOLECULE: "Cc1ccc(CN2C[C@@H]3[C@@H](C(=O)N4CCCC4)CCS(=O)(=O)[C@@H]3C2)cc1"
  REPORTED_RESULT: -1.09
- MOLECULE: "Cc1cnn(CCNC(C)C(=O)NCCc2cccs2)c1 (configuration not stated)"
  REPORTED_RESULT: 23
- MOLECULE: "CCn1cnnc1CNC(=O)N1CCN(C(C)C)CC1"
  REPORTED_RESULT: 26
- MOLECULE: "CN1CCCC1c1cncc(C(=O)NCC2CC2)n1 (configuration not stated)"
  REPORTED_RESULT: -6.82
- MOLECULE: "Cc1cc(NC(=O)Cn2ncc(SCC(N)=O)c(Cl)c2=O)ccc1Br"
  REPORTED_RESULT: -5.33
- MOLECULE: "O=C(c1cccnc1N1CCOCC1)N1CCCC(n2cccn2)C1 (configuration not stated)"
  REPORTED_RESULT: -5.6
- MOLECULE: "COCc1cc(CNC(=O)c2cccc3c2OCC3)n[nH]1"
  REPORTED_RESULT: -5.24
- MOLECULE: "CCn1c(CN2CCCC2)nnc1C1CCN(Cc2ccccn2)CC1"
  REPORTED_RESULT: 18.4
- MOLECULE: "Cc1ccc(N2CCC3(CC2)CC(OCC(C)C)C3)nn1"
  REPORTED_RESULT: -8.68
- MOLECULE: "CCN1C[C@@H]2[C@@H](OC)CCN(S(=O)(=O)c3cccnc3)[C@@H]2C1"
  REPORTED_RESULT: -10.5
- MOLECULE: "Fc1ccccc1CC1CCN(Cc2cscn2)CC1"
  REPORTED_RESULT: -4.53
- MOLECULE: "CN1C(=O)CCC12CCCN(C(=O)c1ccncc1F)C2 (configuration not stated)"
  REPORTED_RESULT: -5.46
- MOLECULE: "CCC(CNS(C)(=O)=O)Oc1ccccc1F (configuration not stated)"
  REPORTED_RESULT: -6.95
- MOLECULE: "Cc1ccc(OCc2nc(CNCCn3cccn3)cs2)cc1"
  REPORTED_RESULT: -2.86
- MOLECULE: "COCC(=O)NCCc1ccc(Cl)s1"
  REPORTED_RESULT: -9.93
- MOLECULE: "CCc1ncc2c(n1)CN(c1cc(NC3CC3)nc(N)n1)C2"
  REPORTED_RESULT: -8.23
- MOLECULE: "Cc1cc(C(=O)N2CCc3ncc(CN4CCOCC4)n3CC2)no1"
  REPORTED_RESULT: 28.9
- MOLECULE: "COCC(=O)N1CCC(c2noc3nc(C)cc(C(F)(F)F)c23)CC1"
  REPORTED_RESULT: 24.6
- MOLECULE: "COc1ccc(NC(=O)c2ccco2)c(N2CCN(C(C)=O)CC2)n1"
  REPORTED_RESULT: -11.7
- MOLECULE: "COc1ccccc1C(=O)N1CC(=O)N(CC(C)C)CC(O)C1 (configuration not stated)"
  REPORTED_RESULT: -1.35
- MOLECULE: "CCN(C)c1ncnc2c1CCN(C(=O)N1CCOCC1)CC2"
  REPORTED_RESULT: 6.06
- MOLECULE: "c1ccc2nc(CN3CCCC3c3noc(C4CC4)n3)ccc2c1 (configuration not stated)"
  REPORTED_RESULT: 21.2
- MOLECULE: "Fc1ccc(CNCCn2cccn2)c(F)c1"
  REPORTED_RESULT: 21.2
- MOLECULE: "Cc1ccccc1CCC1CCCN(Cc2nnc(-c3ccco3)o2)C1 (configuration not stated)"
  REPORTED_RESULT: -12.7
